Source listed as paper PMC9352680.

Kindly supply the reported pKd values for the records listed here.
measured_target: T1, PUF4 RNA-binding domain (Saccharomyces cerevisiae, UniProt P25339 537-888)
T1 sequence: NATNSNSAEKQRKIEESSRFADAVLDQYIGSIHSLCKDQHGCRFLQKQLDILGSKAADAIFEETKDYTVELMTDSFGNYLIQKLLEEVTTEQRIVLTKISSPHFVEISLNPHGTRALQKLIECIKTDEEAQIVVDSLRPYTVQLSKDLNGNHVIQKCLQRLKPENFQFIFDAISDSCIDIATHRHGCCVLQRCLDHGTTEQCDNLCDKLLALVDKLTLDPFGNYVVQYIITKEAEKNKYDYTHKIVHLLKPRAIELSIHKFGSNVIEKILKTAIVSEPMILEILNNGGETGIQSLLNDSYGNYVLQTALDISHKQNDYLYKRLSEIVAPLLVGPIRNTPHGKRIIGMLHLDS
assay_remarks: Mg; RNA-MaP; 20 mM Na-HEPES pH 7.4, 30 mM KOAc, 0.75 mM MgCl2, 0.1% Tween-20, 5% glycerol, 0.1 mg/mL BSA, 2 mM DTT; 25 C; 0.0125-409.6 nM protein
test_context: tags: N-His6-TEV cleaved; C-SNAP kept, Cy3B-labelled; label: tethered on chip by stalled RNA polymerase
Numbers only, as −log10 of the molar value.

INSERT INTO results (binder, reported_measurement) VALUES
  ('Id_ii_S2_P4E.3_K4.2_C4.2_[T-1A]_H4.2_A4.1_F4.1_T4.2_[G10T] (ssRNA) RNA: UUUGAUUAAUAUGAUAUCGUUCUUUCUCAUAUAUAUUAUUUUCUUUCUCGAUAUCAUAUUAAUCUUU', 8.08),
  ('UCUCUUUGUAUAGCAUUCUCUU (ssRNA) [Ic_S1_P5E.1_K5.1_C5.1_H5.1_A5.1_[T6A]_[A7G]_F5.1_[T8C]_[T9A]_[A10T]_T5.1]', 7.49),
  ('Ic_S2_P5E.1_K5.1_C5.1_H5.1_A5.1_[T5G]_[A7G]_F5.1_[T8C]_[T9C]_T5.1 (ssRNA) RNA: UUUGAUUAAUAUGAUAUCGUUCUUUCUUGUAGUGCCAUUCUUUCUCGAUAUCAUAUUAAUCUUU', 6.01),
  ('UCUCUUUGUAACUUCUCUCUU (ssRNA) [Ic_S1_P4E.1_K4.1_C4.1_H4.1_A4.1_[T5A]_[A6C]_F4.1_[A9C]_T4.1]', 6.95),
  ('Ic_S2_P3E.1_K3.1_C3.1_H3.1_A3.1_F3.1_T3.1 (ssRNA) RNA: UUUGAUUAAUAUGAUAUCGUUCUUUCUUGUAUAUAUUCUUUCUCGAUAUCAUAUUAAUCUUU', 8.86);

Lab note: each binder below needs its pKd filled in.
1. UCUCUUUGCAAAUUAUCUCUU (ssRNA) [Ib_S1_P4E.1_K4.1_C4.1_H4.1_[T3C]_A4.1_[T5A]_F4.1_T4.1]
2. Ib_S4_P4E.1_K4.1_C4.1_H4.1_[T1A]_[G2C]_A4.1_F4.1_T4.1 (ssRNA) RNA: UUUGACAACUGAUCGUUCUUUCUACUAUAUUAUUCUUUCUCGAUCAGUUGUCUUU

[6.03, 6.32]
